Consider the following binders and their measured Kd readings.
molecular target: Human PD-1/PDCD1 Protein (PD-1) (human, UniProt Q15116 25-167, limits assumed); test: SPR, Biacore 8K; PD-1 captured by anti-His antibody, antibody in flow
Sequence (Q15116 25-167 limits assumed): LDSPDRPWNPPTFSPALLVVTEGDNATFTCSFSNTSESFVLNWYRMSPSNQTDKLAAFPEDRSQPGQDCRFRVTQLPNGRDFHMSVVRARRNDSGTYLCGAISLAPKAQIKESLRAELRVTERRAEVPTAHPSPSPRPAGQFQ
Quick reminder: number only, in nM, skip the unit.

HM297-I4 (antibody, human IgG1, V domains shown, also called humanized HM297, VH ver.I / VL ver.4) VH: QVQLVQSGPEVKKPGASVKVVCKASGYTFTDYNVDWVRQVPGQGLEWMGDIDPNNGGTIYNQKFKDRVTMTVDTSTRTAYMELRSLRSDDTAVYYCARWRGAMDYWGQGTLVTVSS VL: DIQMTQTTSSLSASVGDRVTITCRASQDIDNYLKWYQQKPDGTVKLLIYDTSRLHSGVPSRFSGSGSGTDYTLTISSLKQEDFATYYCQQGYTLPWTFGQGTKLEIK: 4.84

Lookup: Which Kd is reported for this binder? HM297-H6 (antibody, human IgG1, V domains shown, also called humanized HM297, VH ver.H / VL ver.6) VH: QVQLVQSGPEVKKPGASVKIPCKASGYTFTDYNVDWVRQVPGQGLEWMGDIDPNNGGTIYNQKFKDRVTMTVDKSTRTAYMELRSLRSDDTAVYYCARWRGAMDYWGQGTLVTVSS VL: DIQMTQSPSSLSASVGDRVTITCRASQDIDNYLKWYQQKPGKAPKLLIYDTSRLHSGVPSRFSGSGSGTDYTLTISSLQPEDFATYYCQQGYTLPWTFGQGTKLEIK
Found: 1.86

Lookup: Also, humanized HM297-H5-IgG1-K322A (antibody, V domains shown) VH: QVQLVQSGPEVKKPGASVKIPCKASGYTFTDYNVDWVRQVPGQGLEWMGDIDPNNGGTIYNQKFKDRVTMTVDKSTRTAYMELRSLRSDDTAVYYCARWRGAMDYWGQGTLVTVSS VL: DIQMTQSPSSLSASVGDRVTITCRASQDIDNYLKWYQQKPDGTVKLLIYDTSRLHSGVPSRFSGSGSGTDYTLTISSLKQEDFATYYCQQGYTLPWTFGQGTKLEIKR please.
Found: 0.563

Lookup: Also, HM268-L8 (antibody, human IgG1, V domains shown, also called humanized HM268, VH ver.L / VL ver.8) VH: QVQLVQSGPEVKKPGASVKVVCKTSGYTFTSYYIQWVRQVPGQGLEWMGWIYFGDASTKYNEKFKGRVTMTADTSTSTAYMELRSLRSDDTAVYYCASYYGSYFDYWGQGTTVTVSS VL: DIQMTQSPSSLSASVGDRVTITCRASQDISNYLNWYQQKPDGTVKLLIYSTSRLHSGVPSRFSGSGSGTDYTLTISSLQPEDFATYYCQQGSTLPFTFGQGTKLEIK please.
Found: 0.00129

Lookup: Also, HM297-F4 (antibody, human IgG1, V domains shown, also called humanized HM297, VH ver.F / VL ver.4) VH: QVQLVQSGPEVKKPGASVKIPCKASGYTFTDYNVDWVRQSHGKSLEWIGDIDPNNGGTIYNQKFKDRVTMTVDKSTRTAYMELRSLRSDDTAVYYCARWRGAMDYWGQGTLVTVSS VL: DIQMTQTTSSLSASVGDRVTITCRASQDIDNYLKWYQQKPDGTVKLLIYDTSRLHSGVPSRFSGSGSGTDYTLTISSLKQEDFATYYCQQGYTLPWTFGQGTKLEIK please.
Found: 24.1
